Target: T1, GAD65 113-132 peptide on HLA-DRB1*04:01 (human)
T1 peptide: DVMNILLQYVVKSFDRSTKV
Test: activation reporter or marker
TEST_READOUT: binding result

Answered cases to consult:
| BINDER | binding result |
| --- | --- |
| Clone_667 (TCR) alpha TRAV5 TRAJ7 CDR3: CAERLYGNNRLAF beta TRBV6-1 TRBJ2-7 CDR3: CASTLLWGGDSYEQYF | recognises |
| Clone_904 (TCR) alpha TRAV9-2 TRAJ52 CDR3: CALSDYSGTSYGKLTF beta TRBV11-2 TRBJ2-1 CDR3: CASSLIPYNEQFF | recognises |
| Clone_640 (TCR) alpha TRAV41 TRAJ49 CDR3: CAAAGNQFYF beta TRBV12-4 TRBJ2-1 CDR3: CASSFTYNEQFF | recognises |
| Clone_262 (TCR) alpha TRAV12-3 TRAJ29 CDR3: CAMEGGRYNTPLVF beta TRBV5-6 TRBJ1-1 CDR3: CASSVNRGHNTEAFF | recognises |
| Clone_839 (TCR) alpha TRAV17 TRAJ6 CDR3: CATDEGGSYIPTF beta TRBV11-3 TRBJ2-2 CDR3: CASSFSGELFF | recognises |
| Clone_2062 (TCR) alpha TRAV20 TRAJ39 CDR3: CAVQAGNAGNMLTF beta TRBV7-6 TRBJ2-2 CDR3: CASASGVVGELFF | recognises |

Shift focus to the following entry.
Ask: Dear colleague, I am looking for the recorded binding result of the following binder: Clone_271 (TCR) alpha TRAV20 TRAJ39 CDR3: CAVQAGNAGNMLTF beta TRBV7-6 TRBJ2-2 CDR3: CASSLGVTGELFF
Result: recognises

Source of measurements: paper PMC8663791
